B1: SCARA5 (parent)
chain: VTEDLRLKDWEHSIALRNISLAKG

Variants of: B1
Assay: protein stability index of a GFP-peptide fusion (GPS, HEK-293T) (PSI 1-6); higher = more stable;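 note: lentivirally expressed fusions sorted by FACS into six bins by GFP to DsRed ratio, PSI derived from sequencing read proportions per bin multiplied by bin number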
Conditions: c terminus: a fixed tail appended
# label = satisfied if protein stability index >= 3 else not satisfied

VARIANT_KEY: N18F
QUALITATIVE_LABEL: not satisfied

VARIANT_KEY: D4P
QUALITATIVE_LABEL: satisfied

VARIANT_KEY: R6Y
QUALITATIVE_LABEL: not satisfied

VARIANT_KEY: R6I
QUALITATIVE_LABEL: satisfied

Confirm if protein stability index reported for the variant L21D is 3 or above.
satisfied

Do the same for L5C please
satisfied

Do the same for L21P please
satisfied

Do the same for H12G please
satisfied

Do the same for A22P please
satisfied

Do the same for I14C please
satisfied

Do the same for R17C please
not satisfied

Do the same for I14P please
satisfied

Do the same for K23T please
not satisfied

Do the same for R6K please
satisfied

Do the same for V1N please
satisfied

Do the same for R17A please
satisfied
